Reported Observed rate constant (slope of linear regression of Ln(A,t/A,0) over time) values are given for each entry in this list.
- target: trypsin (Sus scrofa, UniProt P00761)
- Sequence (P00761 9-231): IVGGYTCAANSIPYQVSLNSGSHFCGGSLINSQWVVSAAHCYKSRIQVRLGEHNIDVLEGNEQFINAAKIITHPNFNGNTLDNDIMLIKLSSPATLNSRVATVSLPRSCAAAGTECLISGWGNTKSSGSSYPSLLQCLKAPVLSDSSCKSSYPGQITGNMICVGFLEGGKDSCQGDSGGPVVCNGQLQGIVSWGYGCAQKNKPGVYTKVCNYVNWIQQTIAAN
- assay info: Apparent first order hydrolysis of extended SIS peptides (kobs, half-life, time to 75% and 95% hydrolyzed)
- Type: in vitro ADME
- Parameters: purchased Promega V5111
- condition notes: trypsin digestion time course, direct-MRM; fit with R2 > 0.80, min 3-4 time points
Give the value in min⁻¹ but do not write min⁻¹ after it.

Answered cases to consult:
biosequence: DSFRFGAPPHAGGGIGLERVTML [DARS_P14868_1752]
measurement unit: min⁻¹
data value: -0.0308
--
biosequence: DTKSDIIFFQRSVP [IL18_Q14116_1752]
measurement unit: min⁻¹
data value: -0.1677
--
biosequence: DEVIKEVQEFYKDTYNK [CD9_P21926_1751]
measurement unit: min⁻¹
data value: -0.0217

Okay, now this sequence:
Q. Recorded Observed rate constant (slope of linear regression of Ln(A,t/A,0) over time) of EEMEKVLAGETLSVNDPPDVLDRQK [ILF3_Q12906_GO] , please.
A. -0.0481

Taken from paper PMC10458721.
